The measured values listed here are drawn from PubChem BioAssay (NCI).

# Method notes: NCI Yeast Anticancer Drug Screen. Data for the mlh1 rad18 strain (AID 175)
# Condition: S. cerevisiae mlh1 rad18 strain growth inhibition; at 50.0 µM (retest, dose inferred, filed as 5.0)
About 79,000 compounds went through this panel and 15% of them were active in at least one assay; those are over-represented in the sample as a whole. Calls of active or inactive are those of the source. Rule as the data show it: active = growth inhibition above about 70%; inactive = the rest.
Outcomes you can answer with include only these: active, inactive

Molecule: N#CC1(C#N)C(C#N)(C#N)C12CCCC2
Label class: active
//
Molecule: COc1ccc2c(c1)S(=O)(=O)C(c1ccccc1)=CC2=O
Label class: active
//
Molecule: O=C(CCc1ccccc1)COC(=O)c1ccc([N+](=O)[O-])cc1
Label class: inactive

stdin: Kindly provide the recorded test outcome for the following molecule: "Nc1ccc(S(=O)(=O)Nc2cc(Cl)cc(Cl)c2)cc1"
stdout: active

stdin: So what was the verdict on "CC(C)CCN1CCC2(CCCCC2)CC1" in this test?
stdout: inactive

stdin: # fetch the recorded call for O=C1c2c(Br)sc(Br)c2[C@@H](NC(=O)C(F)(F)F)C1Br (some centres not stated) here
stdout: active

stdin: For "CN(C)CCCSc1c2ccccc2nc2cccc([N+](=O)[O-])c12" , what call appears in the results of this test?
stdout: inactive

stdin: Please indicate how the test categorized "CCCCN(c1ccccc1)c1ncnc2c1ncn2C" .
stdout: active

stdin: For "Nc1ccc(N=Nc2ccccc2)c2ccccc12" , what call appears in the results of this test?
stdout: active

stdin: Short answer needed: outcome of this test for "CC(CO)(CO)N=Cc1cc(I)cc(I)c1O" ?
stdout: active

stdin: Test call for this molecule, please: "CCCOC(=O)C#CC(=O)OCCC"
stdout: active

stdin: Returns: the outcome recorded for "CC(=O)OC(c1ccc(Cl)cc1)c1ccc(Cl)cc1" in this assay.
stdout: inactive
